- Measured on: IRAK4 (Homo sapiens)
- Method description: 2-hour 10 μM ATP Biochemical Assay (MesoScale Detection format; IRAK4 phosphorylation of biotin labeled IRAK1 activation loop peptide)
- Reported conditions: IRAK4 MSD BIOCHEMICAL (10 μM ATP) IC50 (μM), 1 nM IRAK4, 2 hours
Experimental endpoint: IC50 (µM)

1. CCOc1cc2nc(C[C@H]3CCOC3)cn2cc1NC(=O)c1cccc(C(F)F)n1 (single isomer, unassigned)
2. CCOc1cc2nc(C3(F)CC3)cn2cc1NC(=O)c1cccc(C(F)F)n1
3. CCOc1cc2nc(C3CCOCC3)cn2cc1NC(=O)c1ccnc(OC)n1
stdin: Exam item: list the entries in increasing order of IC50. Put the labels in the requested order and write them down.
stdout: 1, 2, 3

I. COc1cc(NC(=O)c2cccc(C(F)F)n2)cn2cc(C34CC(C(F)F)(C3)C4)nc12 [Example 512, 2,2,2-trifluoroacetate]
II. CCOc1cc2nc(CN3CCOCC3)cn2cc1NC(=O)c1cccc(C(F)F)n1
III. CCOc1nc2nc(CC)cn2cc1NC(=O)c1cccc(C(F)F)n1
IV. CCOc1cc2nc(CC)cn2cc1NC(=O)c1ccc2c(c1)OCC2
V. CCOc1cc2nc([C@H](F)[C@@H]3CCOC3)cn2cc1NC(=O)c1cccc(C(F)(F)F)n1 (single isomer, unassigned)
stdin: Output the entries ranked by IC50 from maximum down to minimum. // rank by listing labels in the order requested
stdout: II, IV, III, I, V

A. CCOc1cc2nc(CC3CCOC3)cn2cc1NC(=O)c1coc(-c2cnn(C)c2)n1 (stereo not drawn) [Example 22]
B. CCOc1cc2nc(C(C)(C)C#N)cn2cc1NC(=O)c1csc(C)n1
C. O=C(Nc1cn2cc(C3CCOCC3)nc2cn1)c1cnn(C(F)F)c1
stdin: List the 3 entries from lowest IC50 to highest IC50 value. Labels, ranked as asked.
stdout: A, B, C
(A: 0.001 µM, B: 0.01 µM, C: 0.37 µM)

a. CCOc1cc2nc(C3CN(C(C)=O)C3)cn2cc1NC(=O)c1cccc(C(F)F)n1
b. CCOc1cc2nc(C3CCOCC3)cn2cc1NC(=O)c1csc(C)n1
stdin: Kindly identify which of a and b has the larger recorded IC50 value. Label of pick, please.
stdout: b

====

- Measured on: IRAK4 (Homo sapiens)
- Sequence (Q9NWZ3 1-460): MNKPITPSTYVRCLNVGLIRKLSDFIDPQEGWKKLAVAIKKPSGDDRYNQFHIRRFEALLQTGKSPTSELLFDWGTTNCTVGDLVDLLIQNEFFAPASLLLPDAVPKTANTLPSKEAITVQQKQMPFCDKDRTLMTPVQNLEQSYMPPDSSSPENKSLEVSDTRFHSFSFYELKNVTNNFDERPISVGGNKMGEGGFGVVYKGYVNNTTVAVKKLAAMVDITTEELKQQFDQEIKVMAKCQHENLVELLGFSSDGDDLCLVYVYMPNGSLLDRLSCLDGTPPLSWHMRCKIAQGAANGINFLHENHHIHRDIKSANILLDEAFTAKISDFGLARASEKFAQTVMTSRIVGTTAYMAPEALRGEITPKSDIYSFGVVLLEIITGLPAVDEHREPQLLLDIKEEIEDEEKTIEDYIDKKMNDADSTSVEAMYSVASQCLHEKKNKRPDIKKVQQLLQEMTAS
- Method description: 2-hour 1 mM ATP IRAK4 Biochemical assay (as above, but with 100 pM IRAK4 and 1 mM ATP)
- Reported conditions: IRAK4 MSD BIOCHEMICAL (1 mM ATP) IC50 (μM), 100 pM IRAK4, 2 hours
Experimental endpoint: IC50 (µM)

{"Molecule": "COc1ncccc1C(=O)Nc1cn2cc(Cl)nc2cc1OC(C)C", "Measured on": "IRAK4 (Homo sapiens)", "Reading unit": "µM", "IC50": 0.027}
{"Molecule": "CCOc1cc2nc(C3(CO)CC3)cn2cc1NC(=O)c1cccc(C(F)F)n1", "Measured on": "IRAK4 (Homo sapiens)", "Reading unit": "µM", "IC50": 0.018}
{"Molecule": "COc1nc(NC(=O)c2cccc(C(F)F)n2)cn2cc(C3CC4(CCOC4)C3)nc12 (stereo not drawn) [Example 557, 2,2,2-trifluoroacetate]", "Measured on": "IRAK4 (Homo sapiens)", "Reading unit": "µM", "IC50": 0.006}
{"Molecule": "CCOc1cc2nc(Cn3cncn3)cn2cc1NC(=O)c1cccc(C(F)F)n1", "Measured on": "IRAK4 (Homo sapiens)", "Reading unit": "µM", "IC50": 0.004}

I. COc1ncccc1C(=O)Nc1cn2cc(C34COC(C)(C3)C4)nc2cc1C(F)F [Example 391, 2,2,2-trifluoroacetate]
II. COc1cc(NC(=O)c2cccc(C(F)F)n2)cn2c(F)c(C3CCOCC3)nc12
stdin: Which entry shows the lesser value of IC50 here, I or II ? Give the label under which the chosen entry appears.
stdout: I
(I: 0.021 µM, II: 0.1 µM)

These entries and their values trace back to patent US20220089592A1.
